Tested on: SLVL (B-Cell Non-Hodgkin's Lymphoma)
Experiment: combination Emax (second highest fraction inhibited in the dose matrix, 72 h); higher = more inhibition; extreme values may be limits of the assay
measured_endpoint: combination Emax

# compound, measured_endpoint, value_reported
data = [
    ("Cn1cnc2c(F)c(Nc3ccc(Br)cc3Cl)c(C(=O)NOCCO)cc21 [Selumetinib] + CCN(CCO)CCCOc1ccc2c(Nc3cc(CC(=O)Nc4cccc(F)c4)[nH]n3)ncnc2c1 [AZD2811] (first compound max 10 µM, 7x7, partner max 1 µM)", "combination Emax", 0.639),
    ("N#Cc1cnc(Nc2cc(NC[C@H]3CNCCO3)c(C(F)(F)F)cn2)cn1 [SRA737] + Nc1ccn([C@@H]2O[C@H](CO)[C@@H](O)C2(F)F)c(=O)n1 [Gemcitabine] (first compound max 10 µM, 7x7, partner max 0.3 µM)", "combination Emax", 0.961),
]
